Entries and their Ki values follow.
molecular target: UniProt P0DTD1; test: Inhibition kinetic study (Lineweaver–Burk, FRET assay); assay type: biochemical; settings: from slope of Lineweaver–Burk curves vs. inhibitor concentration; read-out: Ki
Use µM as the unit, but write only the number.

CN(CCCO)c1cc2c3c(cccc3n1)C(=O)c1ccccc1-2 [GR04]
298

The record that follows has no Ki shown yet.
Record summary for CCCc1nc2c(o1)OC(N)=C(C#N)[C@H]2c1cccc(O)c1 [GR20] : reported Ki = 89
